Overview of reported self-cleavage across a group of variants:
B1: OR4K15 (parent)
chain: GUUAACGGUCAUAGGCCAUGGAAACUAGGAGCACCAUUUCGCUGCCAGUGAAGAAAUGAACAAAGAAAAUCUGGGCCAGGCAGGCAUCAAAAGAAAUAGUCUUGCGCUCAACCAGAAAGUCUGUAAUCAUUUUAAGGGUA

- Variants of: B1
- assayRemarks: self-cleavage, relative activity (ratio to wild type); higher = more cleavage; in vitro, sequencing; the parent is a self-cleaving ribozyme

{"columns": ["primarySequence", "self-cleavage"],
 "data": [
  ["GUUAUCGGUCAUAGGCCAUGGAAACUAGGAGCACCAUUUCGCUGCCAGUGAAGAAAUGAACAAAGAAAAUCUGGGCCAGGCAGGCAUCAAAAGAAAUAGUCUUGCGCUCAACCAGAAGGUCUGUAAUCAUUUUAAGGGUA [A5U A118G]", 0.83],
  ["GUUAACGGUCAUAGGCCAUGGAAACUAGGAGCACCAUUUCGCUGCCAGUGCAGAAAUGAACAAAGAAAAUCUGGGCCAGGCAGGCAUCAAAAGAGAUAGUCUUGCGCUCAACCAGAAAGUCUGUAAUCAUUUUAAGGGUA [A51C A95G]", 1.65],
  ["GUUAACGGUCAUAGGCCAUGGAAACUAGGAGCACCAUUUCGCUGCCAGUGAAGAAAUGAACAAAGAAUAUCUGGGCCAGGCAGGCAUCAAAAGAAAUAGUCUUGCACUCAACCAGAAAGUCUGUAAUCAUUUUAAGGGUA [A68U G106A]", 0],
  ["GUUAACGGUCAUAGGCCAUGGAAACUAGGAGCACCAUUUCGCUGCCAGUGAAGAAAUGAACAGAGAAAAUCUGGGCCAGGCAGACAUCAAAAGAAAUAGUCUUGCGCUCAACCAGAAAGUCUGUAAUCAUUUUAAGGGUA [A63G G84A]", 1.86],
  ["GUUAACGGUCAUAGGCCAUGGAAACUAGGAGCACCAUUUCGCUGCCAGUGAAGAAAUGAACAAAGAGAAUCUGGGUCAGGCAGGCAUCAAAAGAAAUAGUCUUGCGCUCAACCAGAAAGUCUGUAAUCAUUUUAAGGGUA [A67G C76U]", 0.07],
  ["GUUAACGGUCAUAGGCCAUGGAAACUAGGAGCACCAUUUCGCUGCCAGUGAUGAAAUGAACAAAGAAAAUCUGGGCCAGGCUGGCAUCAAAAGAAAUAGUCUUGCGCUCAACCAGAAAGUCUGUAAUCAUUUUAAGGGUA [A52U A82U]", 0.2],
  ["GUUAACGGUCAUAGGCCAUGGAAACUAGGAGCACCUUUUCGCUGCCAGUGAAGCAAUGAACAAAGAAAAUCUGGGCCAGGCAGGCAUCAAAAGAAAUAGUCUUGCGCUCAACCAGAAAGUCUGUAAUCAUUUUAAGGGUA [A36U A54C]", 1.73],
  ["GUUAACGGUCAUAGGCCAAGGAAACUAGGAGCACCAUUUCGCUGCCAGUGAAGAAAUGAACAAAGAAAAUCUGGGCCAGGCAGGCAUCAAAAGAAAUAGUCUUGCGCUCAACCAGAAAGGCUGUAAUCAUUUUAAGGGUA [U19A U120G]", 1.35],
  ["GUUAACGGUCAUAGGCCAUGGAGACUAGGAGCACCAUUUCGCUGCCAGUGAAGAAAUGAACAAAGAAAAUCUGGGCCAGGCAGGCAUCAAAAGAAAUAGUCUUGCGCUCAACCAGAAAGUCUGUAAUCAUUUUAGGGGUA [A23G A135G]", 1.13],
  ["GCUAACGGUCAUAGGCCAUGGAAACUAGGAGCACCAUUUCGCUGCCAGUGAAGAAAUGAGCAAAGAAAAUCUGGGCCAGGCAGGCAUCAAAAGAAAUAGUCUUGCGCUCAACCAGAAAGUCUGUAAUCAUUUUAAGGGUA [U2C A60G]", 1.02],
  ["GUUAACGGUCAUAGGCCAUGGAAACUAGGAGCACCGUUUCGCUGCCAGUGAAGAAAUGAACAAAGAAAAUCUGGGCCAGGCAGGCAUCAAAAGAAAUAGUCUUGCGCACAACCAGAAAGUCUGUAAUCAUUUUAAGGGUA [A36G U108A]", 0.01],
  ["GUUAACGGUCAUAGGCCAUGGAAACUAGGAGCACCAUUUCGCUGCCAGUGAAGAAAUGAACAAAGAAAAUCUGGGCCAGGCAGGCAUCAGAAGAAAUAGUCUUGCGCUCAACCAGAAAGUCCGUAAUCAUUUUAAGGGUA [A90G U122C]", 0.65],
  ["GUUAACGGUCAUAGGCCAUGGAAACUAGGAGCACCAUUUCGCUGCCAGUGAAGAAAUGAACAAAGAAAAUCUGGGCCAGGCAGGCAUCAAAAGAAAUAGUCUUGCGCUCAACCAGAAGGUCUGUAAUCAUUUUAAGGGGA [A118G U139G]", 0.07],
  ["GUUAACGGUCAUAGGCCAUGGAAACUAGGAGCACCAUUUCGCUGCCAGUGUAGAAAUGAACAAAGAAAAUCUGGGCCAGGCAGGCAUCAAAAGAAAUAGUCUUGCGCUCAACCAGAAAGUCUGUGAUCAUUUUAAGGGUA [A51U A125G]", 0.42],
  ["GUUAACGGUCAUAGGCCAUGGAAACUAGGAGCACCAUUCCGCUGCCAGUGAAGAAAUGAACAAAGAAAAUCUGGGCCAGGCAGGCAUCAAAAGAAAUAGUCUUGCGCUCAACCAGAAAGUCUGUAAUCAUUUUAGGGGUA [U39C A135G]", 1.82],
  ["GUUAUCGGUCGUAGGCCAUGGAAACUAGGAGCACCAUUUCGCUGCCAGUGAAGAAAUGAACAAAGAAAAUCUGGGCCAGGCAGGCAUCAAAAGAAAUAGUCUUGCGCUCAACCAGAAAGUCUGUAAUCAUUUUAAGGGUA [A5U A11G]", 1.49],
  ["GUUAACGGUCAUAGGCCAUGGAAACUAGGAGCACCAUUUCGCUGCCAGUGAAGAAAUGAACAAAGAAAAUCUGGGCCAGGCAUGCAUCAAAAGAAAUAGUCUUGCGCUCAACCAGAAAGUCAGUAAUCAUUUUAAGGGUA [G83U U122A]", 0.15],
  ["GUUAACGGUCAUAGGCCAUGGAAACUAGGAGCACCAUUUCGCCGCCAGUGAAGAAAUGAACAAAGAAAAUCUGGGCCAGGCAGGCAUCAAAGGAAAUAGUCUUGCGCUCAACCAGAAAGUCUGUAAUCAUUUUAAGGGUA [U43C A92G]", 1.24],
  ["GUUAACGGUCAUAGGCCAUGGAAACUAGGAGCACCUUUUCGCUGCCAGUGAAGAAAUGAACAAAGAAAAUCUGGGCCAGGCAGGCAUCAAAAGAAAUAGUCUUGCGCUCAACCAGAAAGUCUGUAAUAAUUUUAAGGGUA [A36U C128A]", 1.18],
  ["GUUAACGGUCAUAGGCCAUGGGAACUAGGAGCACCAUUUCGCUGCCAGUGAAGAAAUGAACAAAGAAACUCUGGGCCAGGCAGGCAUCAAAAGAAAUAGUCUUGCGCUCAACCAGAAAGUCUGUAAUCAUUUUAAGGGUA [A22G A69C]", 0.68],
  ["GUUAACGGUCAUAGGCCAUGGAAACUAGGAGCACCAUUUCGCUGCCGGUGAAGAAAUGAACAAAGAAAAUCUGGGCCAGGCAGGCAUCAAAAGAAACAGUCUUGCGCUCAACCAGAAAGUCUGUAAUCAUUUUAAGGGUA [A47G U97C]", 1.08],
  ["GUUAACGGUCAUAGGCCAUGGAAACUAGGAGCACCAUUUCGCUGCCAGUGAAGAAAUGAACAAAGAAUAUCUGGGCCAGGCAGGCAUCAAAAGAAAUAGUCUUGCGCUCAACCAGAAAGUCUGUAAUCAUUUUGAGGGUA [A68U A134G]", 1.78]
]}
